assay-system: Gal(b1-4)GlcNAc(b1-3)[Gal(b1-4)GlcNAc(b1-6)]GalNAc
assay-remarks: glycan array binding signal (z-score within array); higher = stronger binding
conditions-used: glycan notation: IUPAC condensed, linker removed
The full list was thinned out, with the strongest signals kept by preference.
quantity-measured: glycan array binding signal (z-score)
Give bare numbers.

Some solved entries appear below for comparison.
[[record]]
binder = "SefD (Salmonella enterica), Q9L6K6 (protein) GAYIIRGQNNSAHKLRIRIGGEDWQPDNSGIGMVSHSDFTNEFNIYYFGNGDIPVDTYLISIYATEIEL"
result_value = -0.441

[[record]]
binder = "cupB6 (Pseudomonas aeruginosa), Q02SP7 (protein) MSMRLFPGRVSLRRRPGAQARQALVLGLCCLTGGQAWALNEVALNCSFGNGKGLPWRVVNELTSGTAKGTVLFARPVSLFLSYKPQASQEAHELVLGGNWSGVGYPGPYGTVASDVKGIGYRISVDAQDGVKRVIPVDNQPHALDKRVTSFSGSTTSDYLQELVLTVDPGELPAGDLKVTSVSGSATLNLWAVDRLKGEASIGSVLAVPADNYPTGVCRKPYSLIGPASIAIGGGPPPPPIPKKCKVEVGREINVKLGSVALKNFPRVNDTSTERSFDISLSECAALAKPEIAFRDKYVSAQQADPTILSLKSGGAAGFGIVVKNGLDQQRIRFDGTPYPMRRVGDSADLPLSAAYIRIGAEGELKAGVADGAAEFTFTFP"
result_value = -0.207

[[record]]
binder = "ConA (Canavalia ensiformis), P02866 (protein) MAISKKSSLFLPIFTFITMFLMVVNKVSSSTHETNALHFMFNQFSKDQKDLILQGDATTGTDGNLELTRVSSNGSPQGSSVGRALFYAPVHIWESSAVVASFEATFTFLIKSPDSHPADGIAFFISNIDSSIPSGSTGRLLGLFPDANVIRNSTTIDFNAAYNADTIVAVELDTYPNTDIGDPSYPHIGIDIKSVRSKKTAKWNMQNGKVGTAHIIYNSVDKRLSAVVSYPNADSATVSYDVDLDNVLPEWVRVGLSASTGLYKETNTILSWSFTSKLKSNEIPDIATVV"
result_value = -0.214


# lookup: glycan array binding signal (z-score) of RS-IIL (Ralstonia solanacearum) (protein) AQQGVFTLPANTSFGVTAFANAANTQTIQVLVDNVVKATFTGSGTSDKLLGSQVLNSGSGAIKIQVSVNGKPSDLVSNQTILANKLNFAMVGSEDGTDNDYNDGIAVLNWPLG
-0.389

The reported measurements were obtained from the supplement of paper PMC8728848.
